# Test system: TK-10
# ASSAY REMARKS: NCI tumour cell line growth inhibition, 48 h
Activity calls are given as the source filed them. No stated cut-off is given here; in the data, active = GI50 up to about 1.1 µM and inactive = higher.
Please answer using one outcome listed in yes (active), no (inactive)

| MOLECULE | ASSIGNED CLASS |
| --- | --- |
| O=C(N/N=C\C=C\c1ccc([N+](=O)[O-])o1)C(=O)N/N=C\C=C\c1ccc([N+](=O)[O-])o1 | no |
| N#C/N=N/c1cc(Cl)c(/N=N/C#N)cc1Cl | no |
| O=C(/C=C/c1cccc(Br)c1)c1ccc(Cl)cc1 | no |
| O=c1cc(N2CCCC2)[nH]c(=O)n1-c1ccc(F)cc1 | no |
| CC(=O)Nn1c(Cc2ccc(Cl)cc2)nn(C)c1=O | no |
| O=S(=O)(O)c1ccc(/N=N/c2ccccc2)cc1 | no |
| CCOc1ccc(NC(=O)CC2SC(Nc3ccc(Cl)cc3)=NC2=O)cc1 (centres undefined) | no |
| C=CCn1c(=S)sc2c(C(=O)OCC)c3c(C)cc(C)cn3c2c1=O | no |
| CC(=O)NN(c1ccccc1)C1CCN(c2ccccc2)N1C(C)=O (centres undefined) | no |
| O=C(N/N=C1/C(=O)N(c2ccc(Cl)cc2Cl)C(=O)C(=O)C1c1nc2ccccc2o1)c1ccccc1O (centres undefined) | no |

Now look at this entry.
Inquiry: Please state the recorded outcome for this molecule: COc1cc(/C=C/C2=NN(c3cccc(S(=O)(=O)O)c3)C3(C2)C(Cl)C(=O)N3c2nc3ccccc3s2)ccc1O (centres undefined)
Reply text: no

This collection of values is drawn from ChEMBL document CHEMBL1201862.
